Values compiled from patent USRE39616E1.

Listing: IC50 of selected compounds
- Target entity: Human erythrocyte acetylcholinesterase (Homo sapiens, UniProt P22303)
- Construct: Human erythrocyte acetylcholinesterase (type XIII, Sigma Israel); purchased Sigma Israel type XIII; host or cells: human erythrocytes
- Sequence (P22303 32-617 isoform P22303-2 limits assumed): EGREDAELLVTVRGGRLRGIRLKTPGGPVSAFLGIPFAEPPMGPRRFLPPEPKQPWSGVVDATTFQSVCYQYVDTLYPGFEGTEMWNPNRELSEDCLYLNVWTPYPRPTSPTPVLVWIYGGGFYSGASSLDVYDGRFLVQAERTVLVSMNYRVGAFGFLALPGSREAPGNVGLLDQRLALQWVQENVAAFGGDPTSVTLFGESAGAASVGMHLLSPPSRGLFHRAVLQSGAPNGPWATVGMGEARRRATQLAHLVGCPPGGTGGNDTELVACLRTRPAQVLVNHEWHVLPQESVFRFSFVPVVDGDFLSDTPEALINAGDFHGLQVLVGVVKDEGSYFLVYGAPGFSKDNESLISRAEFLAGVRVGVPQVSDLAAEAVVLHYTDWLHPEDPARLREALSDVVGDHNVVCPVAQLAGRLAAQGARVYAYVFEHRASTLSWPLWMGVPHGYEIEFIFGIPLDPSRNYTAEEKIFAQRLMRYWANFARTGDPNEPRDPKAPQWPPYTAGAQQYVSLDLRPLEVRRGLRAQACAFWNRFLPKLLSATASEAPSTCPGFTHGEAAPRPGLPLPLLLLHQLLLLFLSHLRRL
- Method summary: biochemical
- Type: biochemical
- Condition: AChE Inhibition In vitro IC50

{"columns": ["Compound", "IC50 (µM)"],
 "data": [
  ["C#CCN(C)C1CCc2cccc(OC(=O)N(C)C)c21 (centres unmarked)", 3.7],
  ["C#CCNC1CCc2cccc(OC(=O)N(C)CC)c21 (centres unmarked)", 540],
  ["C#CCNC1CCc2ccc(OC(=O)N(C)C3CCCCC3)cc21 (centres unmarked)", 33],
  ["C#CCNC1CCc2ccc(OC(=O)N(C)Cc3ccccc3)cc21 (centres unmarked)", 2.5],
  ["C#CCNC1CCc2ccc(OC(=O)N(C)CCC)cc21 (centres unmarked)", 17],
  ["C#CCNC1CCc2cccc(OC(=O)N(C)C)c21 (centres unmarked)", 5.72],
  ["C#CCN(CC)C1CCc2ccc(OC(=O)N(C)C)cc21 (centres unmarked)", 10],
  ["C#CCNC1CCc2ccc(OC(=O)N(C)c3ccc(OC)cc3)cc21 (centres unmarked)", 0.75],
  ["C#CCNC1CCc2c(OC(=O)N(C)C)cccc21 (centres unmarked)", 0.046],
  ["C#CCNC1CCc2ccc(OC(=O)N(C)CCCCCC)cc21 (centres unmarked)", 15],
  ["C#CCNC1CCc2ccc(OC(=O)N(C)CCCC)cc21 (centres unmarked)", 11.5]
]}
